Listing of entries alongside the reported Ki.
Target: Serotonin 2 (5-HT2) receptor (Rattus norvegicus, UniProt P30994+P08909+P14842)

| Compound | Ki |
| --- | --- |
| COc1ccc(CC(C)N)cc1 (stereo unspecified) | 33600 nM |
| NCCc1c[nH]c2cccc(O)c12 | 725 nM |
| COc1cc([N+](=O)[O-])c(OC)cc1C[C@@H](C)N | 210 nM |
| NCCc1c[nH]c2ccccc12 | 2895 nM |
| CN(C)CCCSc1ccccc1NC(=O)/C=C/c1ccccc1 | 4 nM |
| CNC(C)Cc1cc(OC)c(C)cc1OC (stereo unspecified) | 415 nM |

* * *

Target: 5-hydroxytryptamine receptor 1B (Rattus norvegicus, UniProt P28564)
Sequence (P28564 whole entry): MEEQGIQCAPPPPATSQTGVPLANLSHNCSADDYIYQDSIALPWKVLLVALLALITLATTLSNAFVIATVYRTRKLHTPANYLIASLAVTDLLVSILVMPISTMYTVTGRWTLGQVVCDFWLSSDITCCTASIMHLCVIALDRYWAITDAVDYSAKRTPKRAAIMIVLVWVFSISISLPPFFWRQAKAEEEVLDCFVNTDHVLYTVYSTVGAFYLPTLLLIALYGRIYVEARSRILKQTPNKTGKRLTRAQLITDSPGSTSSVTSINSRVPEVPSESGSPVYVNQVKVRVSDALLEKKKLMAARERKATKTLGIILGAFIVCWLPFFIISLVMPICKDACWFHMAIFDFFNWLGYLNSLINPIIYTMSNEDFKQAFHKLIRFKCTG
pKi: −log10 of the molar value.
Returns one of true (1) or false (0); true (1) when pKi is >= 7.

| Molecule | System | Discrete label |
| --- | --- | --- |
| CNCCc1c[nH]c2ccc(O)cc12 | 5-hydroxytryptamine receptor 1B (Rattus norvegicus, UniProt P28564) | true (1) |
| FC(F)(F)c1cccc(N2CCNCC2)c1 | 5-hydroxytryptamine receptor 1B (Rattus norvegicus, UniProt P28564) | true (1) |
| CN(C)CCc1c[nH]c2ccc(O)cc12 [BUFOTENINE] | 5-hydroxytryptamine receptor 1B (Rattus norvegicus, UniProt P28564) | false (0) |
| NCCc1c[nH]c2cccc(O)c12 | 5-hydroxytryptamine receptor 1B (Rattus norvegicus, UniProt P28564) | false (0) |
| O=C(CCCN1CCC2(CC1)C(=O)NCN2c1ccccc1)c1ccc(F)cc1 [SPIPERONE] | 5-hydroxytryptamine receptor 1B (Rattus norvegicus, UniProt P28564) | false (0) |
| O=C(c1ccc(F)cc1)C1CCN(CCn2c(=O)[nH]c3ccccc3c2=O)CC1 [KETANSERIN] | 5-hydroxytryptamine receptor 1B (Rattus norvegicus, UniProt P28564) | false (0) |
| NCCc1c[nH]c2cc(O)ccc12 | 5-hydroxytryptamine receptor 1B (Rattus norvegicus, UniProt P28564) | false (0) |
| CN1C[C@@H](NS(=O)(=O)N(C)C)C[C@@H]2c3cccc4c3c(cn4C)C[C@H]21 [MESULERGINE] | 5-hydroxytryptamine receptor 1B (Rattus norvegicus, UniProt P28564) | false (0) |
| Cc1nc2ccccn2c(=O)c1CCN1CCC(C(=O)c2ccc(F)cc2)CC1 [PIRENPERONE] | 5-hydroxytryptamine receptor 1B (Rattus norvegicus, UniProt P28564) | false (0) |
| NCCc1c[nH]c2ccc(C(N)=O)cc12 | 5-hydroxytryptamine receptor 1B (Rattus norvegicus, UniProt P28564) | true (1) |
| CN1C[C@H](CNC(=O)OCc2ccccc2)C[C@@H]2c3cccc4c3c(cn4C)C[C@H]21 [METERGOLINE] | 5-hydroxytryptamine receptor 1B (Rattus norvegicus, UniProt P28564) | true (1) |
| COc1ccc2[nH]cc(C3=CCNCC3)c2c1 [RU-24969] | 5-hydroxytryptamine receptor 1B (Rattus norvegicus, UniProt P28564) | true (1) |
| c1ccc2nc(N3CCNCC3)ccc2c1 [QUIPAZINE] | 5-hydroxytryptamine receptor 1B (Rattus norvegicus, UniProt P28564) | false (0) |

* * *

Target: Serotonin 1 (5-HT1) receptor (Rattus norvegicus, UniProt P28564+P30940+P19327+P28565)
Listing of entries alongside the reported Ki.
Readout name: Ki (µM)

| Compound | Unit of measure | Reported |
| --- | --- | --- |
| O=C(CCCN1CCC2(CC1)C(=O)NCN2c1ccccc1)c1ccc(F)cc1 | µM | 0.16 |
| CCCc1cc(OC)c(CC(C)N)cc1OC (stereo unspecified) | µM | 3.17 |
| C[C@@H](N)Cc1ccc2c(c1)OCO2 | µM | 13 |
| CN(C)CCCSc1ccccc1NC(=O)/C=C/c1ccccc1 | µM | 3.5 |
| COc1ccc(CC(C)N)cc1 (stereo unspecified) | µM | 79.4 |
| COc1cc(C[C@@H](C)N)c(OC)cc1C | µM | 3.55 |
| COc1ccc2[nH]cc(CCN(C)C)c2c1 | µM | 0.05 |
| COc1cc(CC(C)N)c(OC)cc1F (stereo unspecified) | µM | 3.37 |
| CNC(C)Cc1cc(OC)c(C)cc1OC (stereo unspecified) | µM | 3.87 |
| COc1cc(C[C@@H](C)N)c(OC)cc1Br (stereo in doubt; form 2) | µM | 4.2 |
| COc1cc(CC(C)N)c(OC)cc1C (stereo unspecified) | µM | 2.89 |
| CN1C[C@H](CNC(=O)OCc2ccccc2)C[C@@H]2c3cccc4c3c(cn4C)C[C@H]21 | µM | 0.02 |
| COc1ccc(CC(C)N)cc1OC (stereo unspecified) | µM | 64.6 |
| COc1cc(C[C@H](C)N)c(OC)cc1Br | µM | 5 |
| COc1cc(OC)c(OC)cc1CC(C)N (stereo unspecified) | µM | 46.4 |
| CN[C@H](C)Cc1cc(OC)c(C)cc1OC | µM | 4.3 |

* * *

Listing of entries alongside the reported pKi.
Target: 5-hydroxytryptamine receptor 1A (Rattus norvegicus, UniProt P19327)
Sequence (P19327 whole entry): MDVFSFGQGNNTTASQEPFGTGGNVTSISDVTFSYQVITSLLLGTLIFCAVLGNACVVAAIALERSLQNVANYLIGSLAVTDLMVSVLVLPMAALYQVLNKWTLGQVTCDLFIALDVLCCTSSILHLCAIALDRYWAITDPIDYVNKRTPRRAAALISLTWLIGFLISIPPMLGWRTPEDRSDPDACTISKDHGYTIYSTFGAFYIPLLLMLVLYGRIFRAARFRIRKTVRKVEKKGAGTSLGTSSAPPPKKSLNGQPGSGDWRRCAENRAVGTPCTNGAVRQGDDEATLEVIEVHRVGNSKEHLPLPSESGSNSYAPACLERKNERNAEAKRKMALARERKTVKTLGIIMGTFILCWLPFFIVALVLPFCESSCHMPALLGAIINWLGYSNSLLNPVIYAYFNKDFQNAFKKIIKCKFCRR
pKi: −log10 of the molar value.

| Compound | System | pKi |
| --- | --- | --- |
| NCCc1c[nH]c2ccc(C(N)=O)cc12 | 5-hydroxytryptamine receptor 1A (Rattus norvegicus, UniProt P19327) | 9.70 |
| NCCc1c[nH]c2cccc(O)c12 | 5-hydroxytryptamine receptor 1A (Rattus norvegicus, UniProt P19327) | 7.02 |
| NCCc1c[nH]c2ccccc12 [TRYPTAMINE] | 5-hydroxytryptamine receptor 1A (Rattus norvegicus, UniProt P19327) | 6.77 |
